- Subject of test: UniProt Q9H2S1
- Protocol notes: 86Rb+ efflux assay for compound activity towards hSK channels
- Condition label: 86Rb+ efflux stimulated with calcium ionophore; drug 0.01 to 30 μM; read-out: hSK2 Inhibitory Activity
Assay metric: IC50

Look over these answered cases.
Name the recorded IC50 for "COc1ccc(-c2ncc(Cl)s2)nc1Nc1ccccn1" . < 100 nM

Suppose we examine the compound "CCOC(=O)CCc1ccc(Nc2cccc(-c3nccs3)n2)nc1" ; what IC50 value has been reported? < 100 nM

Looking for the measured IC50 of "c1cc(Nc2ccc(-c3ccsc3)cn2)nc(-c2nccs2)c1" , can you help? < 100 nM

Could you share which IC50 value was measured for "Cc1cnc(-c2cccc(Nc3ccc(N4CCCCC4)cn3)n2)s1" ? 100 to 500 nM

Fill in IC50 for each of the 8 compounds listed.
1. Cc1cnc(-c2cccc(Nc3ccccn3)n2)s1
2. c1ccc(-c2ccc(Nc3cccc(-c4nccs4)n3)nc2)cc1
3. Clc1cnc(-c2cccc(Nc3ccc(N4CCCCC4)cn3)n2)s1
4. Clc1cnc(-c2cccc(Nc3ccc(N4CCOCC4)cn3)n2)s1
5. COc1ccc(-c2nccs2)nc1Nc1ccccn1
6. COc1ccc(-c2nccs2)nc1Nc1ccc(N2CCCCC2)cn1
7. COc1ccccc1-c1ccc(Nc2cccc(-c3nccs3)n2)nc1
8. c1cc(Nc2ccc(-c3ccco3)cn2)nc(-c2nccs2)c1

["< 100 nM", "100 to 500 nM", "100 to 500 nM", "< 100 nM", "< 100 nM", "< 100 nM", "100 to 500 nM", "< 100 nM"]

Reference source: patent US20080108600A1
